# targetEntity: human KLB and human FGFR1c co-expressed on HEK293/hKLB/hFGFR1c/SRE-luc cells (human, UniProt Q86Z14 1-1044; P11362 22-822)
# Sequence (Q86Z14 whole entry, chain 1 of 2): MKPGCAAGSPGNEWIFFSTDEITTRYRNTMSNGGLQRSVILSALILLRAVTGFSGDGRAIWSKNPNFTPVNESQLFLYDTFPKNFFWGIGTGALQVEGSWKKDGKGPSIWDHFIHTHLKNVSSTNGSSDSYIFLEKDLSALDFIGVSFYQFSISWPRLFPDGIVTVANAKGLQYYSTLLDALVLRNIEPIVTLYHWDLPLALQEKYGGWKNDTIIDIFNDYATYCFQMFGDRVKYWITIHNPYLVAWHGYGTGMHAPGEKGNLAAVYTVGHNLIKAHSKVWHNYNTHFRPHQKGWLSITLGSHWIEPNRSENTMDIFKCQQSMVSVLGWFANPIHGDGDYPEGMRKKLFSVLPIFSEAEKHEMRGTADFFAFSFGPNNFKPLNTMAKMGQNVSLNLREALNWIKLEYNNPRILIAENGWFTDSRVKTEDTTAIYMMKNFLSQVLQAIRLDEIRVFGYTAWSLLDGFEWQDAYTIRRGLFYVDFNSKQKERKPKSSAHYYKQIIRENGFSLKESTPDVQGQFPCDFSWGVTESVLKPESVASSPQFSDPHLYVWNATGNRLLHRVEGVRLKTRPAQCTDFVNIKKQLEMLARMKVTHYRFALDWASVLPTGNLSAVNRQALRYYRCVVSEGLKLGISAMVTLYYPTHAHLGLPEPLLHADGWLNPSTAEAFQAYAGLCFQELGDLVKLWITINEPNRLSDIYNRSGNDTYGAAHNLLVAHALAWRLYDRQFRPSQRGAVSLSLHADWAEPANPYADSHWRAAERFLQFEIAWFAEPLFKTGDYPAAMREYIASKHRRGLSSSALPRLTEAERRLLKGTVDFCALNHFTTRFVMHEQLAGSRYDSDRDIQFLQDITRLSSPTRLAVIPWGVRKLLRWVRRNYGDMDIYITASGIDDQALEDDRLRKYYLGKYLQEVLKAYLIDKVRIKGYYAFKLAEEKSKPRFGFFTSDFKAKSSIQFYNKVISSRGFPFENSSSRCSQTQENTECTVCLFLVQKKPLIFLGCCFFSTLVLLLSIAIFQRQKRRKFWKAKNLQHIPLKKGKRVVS
# Sequence (P11362 other isoform, or with tags, fused parts or gaps limits assumed, chain 2 of 2): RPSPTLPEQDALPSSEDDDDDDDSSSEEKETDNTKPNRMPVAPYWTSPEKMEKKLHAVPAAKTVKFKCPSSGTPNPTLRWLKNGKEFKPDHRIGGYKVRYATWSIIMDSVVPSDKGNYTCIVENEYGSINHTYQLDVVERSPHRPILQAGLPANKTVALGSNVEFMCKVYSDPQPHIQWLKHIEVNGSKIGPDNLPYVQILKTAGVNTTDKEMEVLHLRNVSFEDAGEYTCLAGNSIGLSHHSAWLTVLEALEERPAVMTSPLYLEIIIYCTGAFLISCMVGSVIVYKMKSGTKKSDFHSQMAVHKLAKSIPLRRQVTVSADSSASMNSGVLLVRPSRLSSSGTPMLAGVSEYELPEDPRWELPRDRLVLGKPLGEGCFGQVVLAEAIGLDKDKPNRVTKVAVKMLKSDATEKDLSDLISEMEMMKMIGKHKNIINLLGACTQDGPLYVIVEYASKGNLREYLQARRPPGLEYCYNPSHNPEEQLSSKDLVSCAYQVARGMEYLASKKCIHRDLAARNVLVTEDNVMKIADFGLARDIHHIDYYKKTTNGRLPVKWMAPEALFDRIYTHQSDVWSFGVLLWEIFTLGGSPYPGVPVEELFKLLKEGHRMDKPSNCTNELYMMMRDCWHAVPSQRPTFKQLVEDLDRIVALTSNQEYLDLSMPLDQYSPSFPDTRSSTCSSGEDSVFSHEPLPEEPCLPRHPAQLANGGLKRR
# experimentalDetails: cell-based or functional assay
resultType: IC50, inhibition of 1 nM hFGF21 (nM)
Write the number in nM without appending the unit.

Solved entries (count: 2):
H4H8856P (antibody, V domains shown, human IgG4 Fc (H4H prefix)) VH: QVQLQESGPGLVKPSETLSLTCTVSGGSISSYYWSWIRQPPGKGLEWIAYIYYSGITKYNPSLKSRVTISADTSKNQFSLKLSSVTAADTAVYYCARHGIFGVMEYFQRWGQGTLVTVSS VL: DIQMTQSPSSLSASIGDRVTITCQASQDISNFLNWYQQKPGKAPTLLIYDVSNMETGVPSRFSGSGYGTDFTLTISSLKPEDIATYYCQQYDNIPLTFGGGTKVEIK
0.65
H2aM8092N (antibody, V domains shown, mouse IgG2 Fc (H2aM prefix); also called H2M8092N) VH: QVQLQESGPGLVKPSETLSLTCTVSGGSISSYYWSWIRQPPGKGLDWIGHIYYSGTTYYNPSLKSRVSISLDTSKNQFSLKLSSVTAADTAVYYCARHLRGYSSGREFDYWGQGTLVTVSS VL: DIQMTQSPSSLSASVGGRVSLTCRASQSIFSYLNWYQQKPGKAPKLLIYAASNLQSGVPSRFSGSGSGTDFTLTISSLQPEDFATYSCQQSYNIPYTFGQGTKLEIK
0.12

Okay, now this binder:
Looking for the measured IC50, inhibition of 1 nM hFGF21 of H4H8852P (antibody, V domains shown, human IgG4 Fc (H4H prefix)) VH: QVQLQESGPGLVKPSETLSLTCTVSGGSISSYYWSWIRQPPGKGLEWIGYIYSSGIIKYNPSLKSRVTISADTSKNQFSLKLSSVTAADTAVYYCARHGIFGVMEYFQRWGQGTLVTVSS VL: DIQMTQSPSSLSASIGDRVTITCQASQDIGNFLNWYQQKPGKAPTLLIYDASNMETGVPSRFSGSGSGTYFTFTISSLQPEDVATYYCQQYDNLPLTFGGGTKVEIK , can you help? 0.38
